Sequence of the target: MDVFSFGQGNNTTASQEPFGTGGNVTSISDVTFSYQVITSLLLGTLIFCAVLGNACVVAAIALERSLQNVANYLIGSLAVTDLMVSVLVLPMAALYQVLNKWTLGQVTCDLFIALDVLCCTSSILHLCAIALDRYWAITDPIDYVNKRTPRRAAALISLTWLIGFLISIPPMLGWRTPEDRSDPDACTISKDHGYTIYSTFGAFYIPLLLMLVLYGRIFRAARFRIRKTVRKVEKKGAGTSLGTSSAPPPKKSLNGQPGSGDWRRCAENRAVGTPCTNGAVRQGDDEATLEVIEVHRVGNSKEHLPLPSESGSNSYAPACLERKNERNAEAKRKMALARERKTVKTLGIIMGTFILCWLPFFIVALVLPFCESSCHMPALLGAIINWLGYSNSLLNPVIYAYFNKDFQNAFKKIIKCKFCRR
pIC50: −log10 of the molar value.
Attribute Measured: pIC50

Completed entries (count: 5):
# Compound, pIC50
records = [
    ("O=c1c2ccccc2sn1CCCCN1CCN(c2nsc3ccccc23)CC1", 6.92),
    ("O=C1c2ccccc2C(=O)N1CCCCN1CCN(c2nsc3ccccc23)CC1", 9.72),
    ("O=c1c2ccccc2cnn1CCCCN1CCN(c2nsc3ccccc23)CC1", 8.00),
    ("O=C1c2ccccc2CCCN1CCCCN1CCN(c2nsc3ccccc23)CC1", 8.39),
    ("O=c1c2ccccc2[nH]n1CCCCN1CCN(c2nsc3ccccc23)CC1", 6.46),
]

P = O=C1c2ccccc2S(=O)(=O)N1CCCCN1CCN(c2nsc3ccccc23)CC1
Q = O=C1C2CCCCC2C=NN1CCCCN1CCN(c2nsc3ccccc23)CC1 (stereo in doubt; 53)
**Query** Parameter metric = pIC50. Return the lower-valued option from P and Q . Answer by quoting the chosen item's label.
**Result** P
(P: 9.40, Q: 10.68)
